- Assay Notes: Temperature and pH stability assay in phosphate buffers
- Assay type: physicochemical
- Details: phosphate buffer, pH 4.5, half-life, pH 4.5, 55 °C, 50 mM phosphate buffer
Readout Name: half-life at 0.1 mg/mL (days)
State just the number; it will be interpreted in days.

Entry CC[C@H](C)[C@@H]1NC(=O)[C@H](Cc2ccc(O)cc2)NC(=O)[C@@H](N)CSSC[C@@H](C(=O)N2CCC[C@H]2C(=O)N[C@@H](CC(C)C)C(=O)NCC(N)=O)NC(=O)[C@H](CC(N)=O)NC(=O)[C@H](CCC(N)=O)NC1=O [OXT, oxytocin] has what half-life at 0.1 mg/mL? 18

* * *

- Assay Notes: Temperature and pH stability assay in phosphate buffers
- Assay type: physicochemical
- Details: phosphate buffer, pH 7, half-life, pH 7.0, 55 °C, 50 mM phosphate buffer
Readout Name: half-life at 0.1 mg/mL
Kindly report the value followed by its unit.

Entry `CC[C@H](C)[C@@H]1NC(=O)[C@H](Cc2ccc(O)cc2)NC(=O)[C@@H](N)CSSC[C@@H](C(=O)N2CCC[C@H]2C(=O)N[C@@H](CC(C)C)C(=O)NCC(N)=O)NC(=O)[C@H](CC(N)=O)NC(=O)[C@H](CCC(N)=O)NC1=O` has what half-life at 0.1 mg/mL? 48 h

* * *

- Assay Notes: Temperature and pH stability assay in phosphate buffers
- Format: physicochemical
- Details: phosphate buffer, pH 9, half-life, pH 9.0, 55 °C, 50 mM phosphate buffer
Readout Name: half-life at 0.1 mg/mL (h)
State just the number; it will be interpreted in h.

Entry CC[C@H](C)[C@@H]1NC(=O)[C@H](Cc2ccc(O)cc2)NC(=O)[C@@H](N)CSSC[C@@H](C(=O)N2CCC[C@H]2C(=O)N[C@@H](CC(C)C)C(=O)NCC(N)=O)NC(=O)[C@H](CC(N)=O)NC(=O)[C@H](CCC(N)=O)NC1=O [OXT, oxytocin] has what half-life at 0.1 mg/mL? 21.6

* * *

- Assay Notes: Stability assay under reductive conditions
- Format: physicochemical
- Details: PBS buffer with 1.0 mM L-glutathione, pH 7
Readout Name: half-life at 9.9 µM (h)
State just the number; it will be interpreted in h.

Entry `CC[C@H](C)[C@@H]1NC(=O)[C@H](Cc2ccc(O)cc2)NC(=O)[C@@H](N)CSSC[C@@H](C(=O)N2CCC[C@H]2C(=O)N[C@@H](CC(C)C)C(=O)NCC(N)=O)NC(=O)[C@H](CC(N)=O)NC(=O)[C@H](CCC(N)=O)NC1=O` has what half-life at 9.9 µM? 8

* * *

- Assay Notes: Temperature and pH stability assay in phosphate buffers
- Assay type: physicochemical
- Details: phosphate buffer, pH 9, half-life, pH 9.0, 40 °C, 50 mM phosphate buffer
Readout Name: half-life at 0.1 mg/mL (days)
State just the number; it will be interpreted in days.

Entry `CC[C@H](C)[C@@H]1NC(=O)[C@H](Cc2ccc(O)cc2)NC(=O)[C@@H](N)CSSC[C@@H](C(=O)N2CCC[C@H]2C(=O)N[C@@H](CC(C)C)C(=O)NCC(N)=O)NC(=O)[C@H](CC(N)=O)NC(=O)[C@H](CCC(N)=O)NC1=O` has what half-life at 0.1 mg/mL? 3.9
